Protocol notes: Cytotoxicity assay in MT-4 cells
Type: cell-based
Condition: human, uninfected MT-4 cells, read-out: MT4 CC50
Observed property: CC50 at 5 days

{"Chem smiles": "C#C[C@]1(CO[P@@](=O)(N[C@@H](C)C(=O)OCC(CC)CC)Oc2ccccc2)S[C@@H](n2cc(F)c(N)nc2=O)C[C@@H]1O", "Observed property": "CC50 at 5 days", "Observed measurement": "23.2 µM"}
{"Chem smiles": "C#C[C@]1(CO)S[C@@H](n2cnc3nc(N)nc(NC4CC4)c32)C[C@@H]1O", "Observed property": "CC50 at 5 days", "Observed measurement": "> 25 µM"}
{"Chem smiles": "C#C[C@]1(CO[P@@](=O)(N[C@@H](C)C(=O)OCC(CC)CC)Oc2ccccc2)S[C@@H](n2cnc3c(N)nc(N)nc32)C[C@@H]1O", "Observed property": "CC50 at 5 days", "Observed measurement": "> 25 µM"}

* * *

Protocol notes: Rhesus pharmacokinetic study, oral compound 7 (plasma and PBMC)
Condition: male, Indian Origin, rhesus monkey, peripheral blood mononuclear cells (PBMC), po, 7.5 mg/kg

{"Chem smiles": "C#C[C@]1(CO)S[C@@H](n2cc(F)c(N)nc2=O)C[C@@H]1O", "Readout units": "nM", "concentration at 24 h": 370}

* * *

Recorded measurements of CC50 at 5 days, one per entry
Protocol notes: Cytotoxicity assay in MT-4 cells
Format: cell-based
Condition: human, uninfected MT-4 cells, read-out: MT4 CC50

{"Chem smiles": "C#C[C@]1(CO)S[C@@H](n2cnc3c(N)nc(N)nc32)C[C@@H]1O", "Readout units": "µM", "Qualifier symbol": ">", "CC50 at 5 days": 25}
{"Chem smiles": "C#C[C@]1(CO)S[C@@H](n2cnc3c(NC4CC4)nc(N)nc32)C[C@@H]1O", "Readout units": "µM", "Qualifier symbol": ">", "CC50 at 5 days": 25}
{"Chem smiles": "C#C[C@]1(CO)S[C@@H](n2cc(F)c(N)nc2=O)C[C@@H]1O", "Readout units": "µM", "Qualifier symbol": "=", "CC50 at 5 days": 24}
{"Chem smiles": "C#C[C@]1(CO)S[C@@H](n2cnc3c(OCC)nc(N)nc32)C[C@@H]1O", "Readout units": "µM", "Qualifier symbol": "=", "CC50 at 5 days": 23}
{"Chem smiles": "C#C[C@]1(CO)S[C@@H](n2cnc3nc(N)nc(OCC)c32)C[C@@H]1O", "Readout units": "µM", "Qualifier symbol": ">", "CC50 at 5 days": 25}

* * *

Protocol notes: Rhesus pharmacokinetic study, oral compound 7 (plasma and PBMC)
Condition: male, Indian Origin, rhesus monkey, plasma, po, 7.5 mg/kg
Observed property: AUC(0-t) (µM·h)

{"Compound": "C#C[C@]1(CO)S[C@@H](n2cc(F)c(N)nc2=O)C[C@@H]1O [Compound 7]", "Observed measurement": 20.1}

* * *

Protocol notes: Rhesus pharmacokinetic study, oral compound 7 (plasma and PBMC)
Condition: male, Indian Origin, rhesus monkey, plasma, po, 7.5 mg/kg

{"Chem smiles": "C#C[C@]1(CO)S[C@@H](n2cc(F)c(N)nc2=O)C[C@@H]1O", "Cmax (nM)": 1500}

* * *

Protocol notes: Rhesus pharmacokinetic study, intravenous compound 7 (plasma and PBMC)
Condition: male, Indian Origin, rhesus monkey, plasma, iv, 1 mg/kg

{"Compound": "C#C[C@]1(CO)S[C@@H](n2cc(F)c(N)nc2=O)C[C@@H]1O [Compound 7]", "AUC(0-t)": "14.6 µM·h"}

* * *

Protocol notes: Rhesus pharmacokinetic study, intravenous compound 7 (plasma and PBMC)
Condition: male, Indian Origin, rhesus monkey, plasma, iv, 1 mg/kg

{"Compound": "C#C[C@]1(CO)S[C@@H](n2cc(F)c(N)nc2=O)C[C@@H]1O [Compound 7]", "Cmax": "3.77 µM"}

* * *

Protocol notes: in vivo
Condition: male, Indian Origin, rhesus monkey, in vivo, iv, 1 mg/kg
Observed property: half-life (h)

{"Chem smiles": "C#C[C@]1(CO)S[C@@H](n2cc(F)c(N)nc2=O)C[C@@H]1O", "Observed measurement": 50}
